Measured IC50, listed per entry.
# tested_on: human IDO1 (Homo sapiens)
# Construct: expressed in transfected cells
# Sequence (P14902 whole entry): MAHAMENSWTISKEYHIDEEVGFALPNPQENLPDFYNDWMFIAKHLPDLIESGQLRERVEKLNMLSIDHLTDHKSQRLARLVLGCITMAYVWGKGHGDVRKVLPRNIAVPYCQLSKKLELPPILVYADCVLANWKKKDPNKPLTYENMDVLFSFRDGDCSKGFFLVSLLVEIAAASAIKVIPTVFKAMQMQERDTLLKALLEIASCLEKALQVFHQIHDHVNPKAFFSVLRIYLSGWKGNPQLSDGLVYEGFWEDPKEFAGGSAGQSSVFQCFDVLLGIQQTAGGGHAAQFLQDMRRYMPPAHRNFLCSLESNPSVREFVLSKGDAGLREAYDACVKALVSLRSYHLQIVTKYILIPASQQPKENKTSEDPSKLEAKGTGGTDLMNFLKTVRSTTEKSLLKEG
# measurement_protocol: HEK293 human IDO1 cell-based IDO inhibition assay
# condition: read-out: HEK Human IDO-1 Potency
observation_type: IC50

molecule: CC(C(=O)O)c1ccc(C[C@@H](C(=O)Nc2ccc(Cl)cc2)[C@H]2CC[C@@H](c3ccnc4ccccc43)CC2)cc1 (single isomer, unassigned) [Example 87a]
test_result: < 0.05 µM
//
molecule: CCC(C(=O)Nc1ccc(C)cc1)N1CCC(Oc2ccnc3ccc(F)cc23)CC1 (stereo not drawn)
test_result: < 0.25 µM
//
molecule: COC(=O)c1ccc(NC(=O)[C@H](C)[C@H]2CC[C@@H](c3ccnc4ccc(F)cc43)CC2)cc1
test_result: < 0.05 µM
//
molecule: CC(C(=O)O)c1ccc(C[C@@H](C(=O)Nc2ccc(Cl)cc2)[C@H]2CC[C@@H](c3ccnc4ccc(F)cc43)CC2)cc1 (single isomer, unassigned) [Example 138]
test_result: < 0.05 µM
//
molecule: CC(C(=O)Nc1ccc(Cl)cc1)C1CCC(c2ccnc3ccnn23)CC1 (racemic)
test_result: < 0.25 µM
//
molecule: C[C@@H](C(=O)Nc1ccc(Cl)cc1)[C@H]1CC[C@@H](c2ccnc3ncccc32)CC1 (single isomer, unassigned) [Example 148b]
test_result: < 0.05 µM
